Kindly state α-human koff for each of the entries shown.
Molecular target: T1, human α-CGRP (Homo sapiens, UniProt P06881)
T1 construct: 1-37 (WT); purchased GenScript Corporation or Global Peptide Services
T1 sequence (P06881 83-119 limits assumed): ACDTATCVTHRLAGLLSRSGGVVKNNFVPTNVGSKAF
Assay: Biacore SPR affinity of Fab fragments to N-biotinylated human α-CGRP on SA chip
Format: binding
Details: 37° C., screening mode except underlined values
Answer with a number only, understood to be in s⁻¹.

# molecule M35: G1 variant; L1 R28N T30G; H2 E54K A57S; HC-FW3 L99T A100V (antibody, V domains shown) VH: EVQLVESGGGLVQPGGSLRLSCAASGFTFSNYWISWVRQAPGKGLEWVAEIRSKSDSSATHYAEAVKGRFTISRDNAKNSLYLQMNSLRAEDTAVYYCTVYFDYGLAIQNYWGQGTLVTVSS VL: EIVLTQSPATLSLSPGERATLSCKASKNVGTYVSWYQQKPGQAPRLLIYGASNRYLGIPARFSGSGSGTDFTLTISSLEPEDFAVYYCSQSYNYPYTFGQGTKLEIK ; its α-human koff = 0.000339

# molecule M32: G1 variant; L1 R28N T30G; H2 E54K A57H; HC-FW3 L99T A100V (antibody, V domains shown) VH: EVQLVESGGGLVQPGGSLRLSCAASGFTFSNYWISWVRQAPGKGLEWVAEIRSKSDHSATHYAEAVKGRFTISRDNAKNSLYLQMNSLRAEDTAVYYCTVYFDYGLAIQNYWGQGTLVTVSS VL: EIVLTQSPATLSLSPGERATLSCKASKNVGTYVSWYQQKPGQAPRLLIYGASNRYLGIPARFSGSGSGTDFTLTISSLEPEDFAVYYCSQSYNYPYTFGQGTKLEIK ; its α-human koff = 0.000271

# molecule M23: G1 variant; L1 R28G; HC-FW3 L99T A100V (antibody, V domains shown) VH: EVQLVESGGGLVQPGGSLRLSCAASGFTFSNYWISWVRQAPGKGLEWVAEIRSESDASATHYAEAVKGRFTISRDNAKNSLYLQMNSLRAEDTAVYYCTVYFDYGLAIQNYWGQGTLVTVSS VL: EIVLTQSPATLSLSPGERATLSCKASKGVTTYVSWYQQKPGQAPRLLIYGASNRYLGIPARFSGSGSGTDFTLTISSLEPEDFAVYYCSQSYNYPYTFGQGTKLEIK ; its α-human koff = 0.00013

# molecule M61: G1 variant; L1 R28N T30G; L2 A51H; H2 E54Q A57N H61F; HC-FW3 L99T A100V (antibody, V domains shown) VH: EVQLVESGGGLVQPGGSLRLSCAASGFTFSNYWISWVRQAPGKGLEWVAEIRSQSDNSATFYAEAVKGRFTISRDNAKNSLYLQMNSLRAEDTAVYYCTVYFDYGLAIQNYWGQGTLVTVSS VL: EIVLTQSPATLSLSPGERATLSCKASKNVGTYVSWYQQKPGQAPRLLIYGHSNRYLGIPARFSGSGSGTDFTLTISSLEPEDFAVYYCSQSYNYPYTFGQGTKLEIK ; its α-human koff = 0.000459

# molecule M29: G1 variant; L1 R28N T30G; HC-FW3 L99T A100V (antibody, V domains shown) VH: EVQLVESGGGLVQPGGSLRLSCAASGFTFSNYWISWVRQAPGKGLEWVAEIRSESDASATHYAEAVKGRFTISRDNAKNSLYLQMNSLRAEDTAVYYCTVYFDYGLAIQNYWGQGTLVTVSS VL: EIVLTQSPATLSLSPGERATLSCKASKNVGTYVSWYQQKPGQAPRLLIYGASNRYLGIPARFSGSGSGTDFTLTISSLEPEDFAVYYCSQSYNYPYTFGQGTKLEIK ; its α-human koff = 0.00038

Data origin: patent US20190071490A1
